Just for reference, paper doi:10.1101/2024.09.10.612331 is where these values come from.

Target: ALX4 R216G (mouse cDNA (human protein sequence …, UniProt O35137 158-291, R204G))
Sequence (O35137 158-291 R204G): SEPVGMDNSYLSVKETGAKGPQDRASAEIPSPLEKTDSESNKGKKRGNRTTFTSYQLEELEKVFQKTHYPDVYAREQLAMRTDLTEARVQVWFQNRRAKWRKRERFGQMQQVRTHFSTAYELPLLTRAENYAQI
Experiment: ITC
endpoint: pKd
For clarity, pKd is expressed as the negative log10 of concentration in mol/L.

Quick one: pKd for 14-mer monomer site ITC duplex (dsDNA) DNA 1: CGCTAATTAGCTCG DNA 2: CGAGCTAATTAGCG ?
7.38
